# experimental system: human V1a receptor (Homo sapiens)
# Construct: expressed in transfected cells; host or cells: CHO K1 (ATCC), also stably transfected with a modified aequorin
# Sequence (P37288 whole entry): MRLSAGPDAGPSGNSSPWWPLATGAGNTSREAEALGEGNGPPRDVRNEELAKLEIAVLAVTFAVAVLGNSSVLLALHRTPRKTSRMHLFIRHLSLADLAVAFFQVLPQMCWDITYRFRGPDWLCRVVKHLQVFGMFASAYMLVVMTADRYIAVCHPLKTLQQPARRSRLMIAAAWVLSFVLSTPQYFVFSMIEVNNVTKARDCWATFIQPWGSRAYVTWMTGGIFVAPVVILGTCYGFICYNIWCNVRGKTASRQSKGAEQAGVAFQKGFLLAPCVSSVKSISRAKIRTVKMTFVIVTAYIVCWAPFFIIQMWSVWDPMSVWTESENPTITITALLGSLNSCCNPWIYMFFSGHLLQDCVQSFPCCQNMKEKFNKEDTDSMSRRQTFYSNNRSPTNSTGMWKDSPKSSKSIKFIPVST
# assay text: Cellular in vitro assay for determining vasopressin receptor activity, V1a receptor cell line (CHO, aequorin luminescence)
# Type: cell-based
# condition details: CHO cell line transfected with human V1a receptor; [Arg]-vasopressin at EC50 concentration; read-out: IC50 hV1a
pIC50: −log10 of the molar value.
Threshold check on pIC50: at or above 8 gives condition met, strictly below gives condition not met.

Past entries and their recorded results:
CC1CCCN1C(=O)c1ccccc1-n1cnc(Cn2nc(-c3ccc(Cl)cc3)n(C[C@H](O)C(F)(F)F)c2=O)n1 (mixture of isomers) [Example 355] : condition met
COCC1CCCN1C(=O)c1ccncc1-n1nc(Cn2nc(-c3ccc(Cl)cc3)n(C[C@H](O)C(F)(F)F)c2=O)nc1C(=O)N1CCS(=O)(=O)CC1 (mixture of isomers) [Example 522] : condition not met
CCN(C)C(=O)c1ccccc1-n1cnc(Cn2nc(-c3ccc(Cl)cc3)n(C[C@H](O)C(F)(F)F)c2=O)n1 [Example 295] : condition met
O=C(Nc1ncccc1-n1cnc(Cn2nc(-c3ccc(Cl)cc3)n(C[C@H](O)C(F)(F)F)c2=O)n1)C1CCC1 [Example 115] : condition not met

For this molecule, is measured pIC50 8 or higher? O=C(Nc1ncccc1-n1cnc(Cn2nc(-c3ccc(Cl)cc3)n(C[C@H](O)C(F)(F)F)c2=O)n1)C1CC1F (single isomer, unassigned) [Example 86]
condition met

Hi, just wondering whether Cn1nccc1NC(=O)c1ccccc1-n1cnc(Cn2nc(-c3ccc(Cl)cc3)n(C[C@H](O)C(F)(F)F)c2=O)n1 [Example 210] shows pIC50 of 8 or higher.
condition met

hey, is pIC50 for this one >= 8? CC1CCCN(C(=O)c2ccccc2-n2cnc(Cn3nc(-c4ccc(Cl)cc4)n(C[C@H](O)C(F)(F)F)c3=O)n2)C1 (mixture of isomers) [Example 351]
condition met

Please tell me: is the molecule O=C(c1cccc(Cl)c1-n1cnc(Cn2nc(-c3ccc(Cl)cc3)n(C[C@@H](O)C(F)(F)F)c2=O)n1)N1CCC[C@@H]1C(F)(F)F [Example 404] at or over 8 in terms of pIC50?
condition not met

Decide: pIC50 of CCn1nccc1C(=O)Nc1ncccc1-n1cnc(Cn2nc(-c3ccc(Cl)cc3)n(C[C@H](O)C(F)(F)F)c2=O)n1 [Example 111] >= 8?
condition met

Is the recorded value of pIC50 equal to or greater than 8 for this molecule? CC[C@H](C)C(=O)Nc1ncccc1-n1cnc(Cn2nc(-c3ccc(Cl)cc3)n(C[C@H](O)C(F)(F)F)c2=O)n1 [Example 119]
condition not met
